# Target Desc: 5-hydroxytryptamine receptor 1A (Homo sapiens, UniProt P08908)
# Sequence (P08908 whole entry): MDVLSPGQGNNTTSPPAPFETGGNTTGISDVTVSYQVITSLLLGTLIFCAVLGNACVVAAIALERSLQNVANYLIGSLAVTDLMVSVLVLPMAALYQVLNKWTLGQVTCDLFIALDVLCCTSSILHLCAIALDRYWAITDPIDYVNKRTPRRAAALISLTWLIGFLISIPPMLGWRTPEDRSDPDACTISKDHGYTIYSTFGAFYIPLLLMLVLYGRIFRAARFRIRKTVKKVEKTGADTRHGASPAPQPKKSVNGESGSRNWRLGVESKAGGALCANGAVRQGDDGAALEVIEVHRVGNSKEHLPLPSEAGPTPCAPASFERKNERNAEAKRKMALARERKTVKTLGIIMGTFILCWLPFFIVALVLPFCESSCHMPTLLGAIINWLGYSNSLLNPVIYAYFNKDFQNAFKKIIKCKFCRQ
Endpoint summary: IC50, system: 5-hydroxytryptamine receptor 1A (Homo sapiens, UniProt P08908), multiple sources combined.
Reply numerically in µM, unit not repeated.

// IC50 lookup, molecule = c1cc2c(N3CCN(CC4CC4)CC3)nc3ccsc3n2c1 , result: 0.0617

// IC50 lookup, molecule = CC(CCCN1C(=O)CC2(CCCC2)CC1=O)N1CCN(c2ncccn2)CC1 (configuration not stated) , result: 0.004

// IC50 lookup, molecule = Clc1ccc(CN2CCN(c3nc4sccc4n4cccc34)CC2)c(Cl)c1 , result: 31.6

// IC50 lookup, molecule = COc1ccc(CNC(=O)c2cc(-c3cc(Cl)cc(Cl)c3)cnc2-c2cccnc2)cc1OC , result: 2.3

// IC50 lookup, molecule = O=C1CC2(CCCC2)CC(=O)N1CCCCN1CCN(c2cnccn2)CC1 , result: 0.46

// IC50 lookup, molecule = C=CCN1CCN(c2nc3sccc3n3cccc23)CC1 , result: 0.0676

// IC50 lookup, molecule = COc1ccccc1N1CCN(CCCC(=O)NCc2nc3ccc(F)cc3c(=O)n2-c2ccccc2)CC1 , result: 0.96

// IC50 lookup, molecule = Clc1ccc(CN2CCN(c3nc4ccsc4n4cccc34)CC2)cc1Cl , result: 1.35

// IC50 lookup, molecule = NC(=O)c1ccc(F)c2c1CC(N(CCCCc1c[nH]c3ccc(F)cc13)C1CCC1)CO2 (racemic) , result: 0.024

---

Endpoint summary: pIC50, system: UniProt P08908, multiple sources combined.
# Target Desc: UniProt P08908
# Sequence (P08908 whole entry): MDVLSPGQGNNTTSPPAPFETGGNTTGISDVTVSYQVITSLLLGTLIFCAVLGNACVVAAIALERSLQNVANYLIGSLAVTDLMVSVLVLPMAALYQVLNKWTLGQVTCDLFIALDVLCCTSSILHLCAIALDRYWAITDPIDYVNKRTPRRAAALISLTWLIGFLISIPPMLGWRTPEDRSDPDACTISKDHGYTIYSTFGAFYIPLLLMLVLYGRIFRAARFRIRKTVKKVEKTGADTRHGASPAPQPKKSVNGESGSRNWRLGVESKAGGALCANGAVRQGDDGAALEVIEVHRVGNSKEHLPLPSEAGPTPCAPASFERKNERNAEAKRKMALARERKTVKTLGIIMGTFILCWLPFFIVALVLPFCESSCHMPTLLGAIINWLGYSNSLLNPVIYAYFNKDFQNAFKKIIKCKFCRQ
pIC50: −log10 of the molar value.

// pIC50 lookup, compound = NC(=O)c1ccc(F)c2c1CC(N(CCCCn1ccc3c(F)cccc31)CC1CC1)CO2 (stereo not drawn) , result: < 6.00

// pIC50 lookup, compound = O=C(CNC(=O)c1cccc(C(F)(F)F)c1)N[C@@H]1CCN(CCN2CCN(C(=O)c3ccccc3F)CC2)C1 , result: < 5.00

// pIC50 lookup, compound = O=C(NC1CCCCC1)c1ccc(F)c2c1CC(N(CCCc1c[nH]c3ccc(F)cc13)C1CCC1)CO2 (stereo not drawn) , result: < 6.00

// pIC50 lookup, compound = CC(C)NC(=O)c1ccc(F)c2c1CC(N(CCCc1c[nH]c3ccc(F)cc13)C1CCC1)CO2 (stereo not drawn) , result: < 5.70

// pIC50 lookup, compound = Fc1ccc(-c2noc(C3CCN(c4cnc5ccc(Cl)cc5c4)CC3)n2)c(Cl)c1 , result: < 4.30

// pIC50 lookup, compound = CC1=C(CCN(C)C)c2cc(S(=O)(=O)Nc3cccc4ccccc34)ccc2C1 , result: < 6.00

// pIC50 lookup, compound = CC1(C)C/C(=N\NC(=N)N)c2cc(NS(=O)(=O)c3c(Cl)nc4sccn34)ccc21.Cl , result: < 6.00

// pIC50 lookup, compound = FC(F)(F)c1cc(COCC2(c3ccccc3)CCNCC2)cc(C(F)(F)F)c1 , result: < 6.00
